These entries and their values trace back to ChEMBL document CHEMBL1134794.

assay: Mean plasma concentration measured in rat; assay type: ADME, organism-based
Property Measured: Cmax (ng/mL)

# Compound, Units Symbol, Cmax
records = [
    ("Cc1ccc([S+]([O-])c2cncc3sc(C(N)=O)cc23)cc1 (stereo not drawn)", "ng/mL", 476),
]

[I] Cc1ccc(Sc2cncc3sc(C(=O)O)cc23)cc1
[II] Cc1ccc(Sc2cncc3sc(C(N)=O)cc23)cc1
Prompt: Compare Cmax: is it lower for I or for II ? // output: label of the selected item
Response: II
(II: 78 ng/mL, I: 751 ng/mL)

* * *

test: Aqueous solubility was determined at pH 7.4; format: physicochemical; details: buffer
Property Measured: solubility (µg/mL)
Field: numeric (µg/mL). Do not append units.

Prompt: Look at this compound and give its reported solubility. Cc1ccc(Sc2cncc3sc(C(N)=O)cc23)cc1
Response: 400
